# Test system: HS729
# Protocol Notes: relative viability vs DMSO control (72 h) (fraction); higher = more viable cells
# Particulars: 0.00051 µM
Rule: measured relative viability below 1 gets T; anything equal to or greater than 1 gets F.

1) C[C@H](Nc1ncnc2nc[nH]c12)c1cc2cccc(Cl)c2c(=O)n1-c1ccccc1	F
2) Clc1ccc(Nc2nnc(Cc3ccncc3)c3ccccc23)cc1	T
3) N#CCNC(=O)c1ccc(-c2ccnc(Nc3ccc(N4CCOCC4)cc3)n2)cc1	F
4) Cn1ncnc1[C@H]1c2n[nH]c(=O)c3cc(F)cc(c23)N[C@@H]1c1ccc(F)cc1	F
5) Cn1cc(C2=C(c3cn(C4CCN(Cc5ccccn5)CC4)c4ccccc34)C(=O)NC2=O)c2ccccc21	F
6) N#CC1(c2ccc(NC(=O)c3cccnc3NCc3ccncc3)cc2)CCCC1	F
7) CCN(CC)CCNC(=O)c1c(C)[nH]c(/C=C2\C(=O)Nc3ccc(F)cc32)c1C	T
8) CC[C@@H]1CN(C(=O)NCC(F)(F)F)C[C@@H]1c1cnc2cnc3[nH]ccc3n12	T

Is it true that relative viability reported for CCc1cnn2c(NCc3ccc[n+]([O-])c3)cc(N3CCCC[C@H]3CCO)nc12 is less than 1?
F

Proceed to CC(C)NC[C@@H](C(=O)N1CCN(c2ncnc3c2[C@H](C)C[C@H]3O)CC1)c1ccc(Cl)cc1
T
